# tested.on: Cytochrome P450 2C9 (Homo sapiens) (UniProt P11712)
# Sequence (P11712 whole entry, looked up): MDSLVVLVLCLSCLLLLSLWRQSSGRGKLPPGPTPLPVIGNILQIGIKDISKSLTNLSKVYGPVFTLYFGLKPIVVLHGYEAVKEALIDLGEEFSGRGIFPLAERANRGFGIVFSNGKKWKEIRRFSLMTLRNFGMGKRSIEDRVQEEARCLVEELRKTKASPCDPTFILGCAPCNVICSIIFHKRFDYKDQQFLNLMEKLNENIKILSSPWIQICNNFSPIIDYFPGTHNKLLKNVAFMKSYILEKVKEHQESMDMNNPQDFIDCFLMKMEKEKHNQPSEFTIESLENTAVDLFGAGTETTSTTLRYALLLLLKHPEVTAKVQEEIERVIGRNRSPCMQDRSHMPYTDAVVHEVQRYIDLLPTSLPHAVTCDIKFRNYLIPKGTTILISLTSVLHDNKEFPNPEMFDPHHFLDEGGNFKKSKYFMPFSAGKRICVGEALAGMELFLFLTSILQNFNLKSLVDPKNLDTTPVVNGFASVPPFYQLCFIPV
# procedure.summary: qHTS Assay for Inhibitors and Substrates of Cytochrome P450 2C9 (AID 883); note: nearly all actives have a fitted effect of over 60% in size; note: potency is the fitted concentration of half-maximal effect
# settings: recombinant CYP2C9, luciferin-H luminescence, 60 min; series mostly up to 57.1 µM
# Description: NIH Molecular Libraries Screening Centers Network [MLSCN] NIH Chemical Genomics Center [NCGC] MLSCN Grant: None NCGC Assay Overview: The P450 gene superfamily is involved in the metabolism and clearance of xenobiotics. […] The luciferin is then measured by luminescence after the addition of a luciferase detection reagent. […] Inhibitors and some substrates limit the production of luciferin, and decrease measured luminescence. […]
Results filed as inconclusive are left out. Active and inactive are the calls of the source. Calls come from the whole dose curve; as a rule, active = well fitted inhibition curve with a large enough effect; inconclusive = small, poorly fitted or top-dose-only effect; inactive = no such curve, though single readings can be large or run the other way.
value.type: Potency

molecule: OC[C@H]1CCCN2CCCC[C@@H]12
value.type: Potency
reading: inactive
--
molecule: CC[C@@]12CCCN3CC[C@@]4(c5ccc(OC)c(O)c5N(C(C)=O)[C@H]4CC1)[C@H]32
value.type: Potency
reading: inactive
--
molecule: CC(=O)c1c(O)c(C)c(O)c2c1OC1=CC(=O)[C@H](C(C)=O)C(=O)[C@]12C
value.type: Potency
reading: 12.6 nM (active)
--
molecule: C=C[C@@H]1CN2CC[C@H]1C[C@H]2[C@@H](O)c1ccnc2ccccc12
value.type: Potency
reading: inactive
--
molecule: CC[C@@H]1CN2CC[C@@H]1C[C@H]2[C@@H](O)c1ccnc2ccc(OC)cc12
value.type: Potency
reading: inactive
--
molecule: CC(C)(C)[C@@]1(O)C[C@@H]2OC(=O)C[C@@]23C(=O)O[C@H]2OC(=O)[C@@H](O)[C@]231
value.type: Potency
reading: inactive
--
molecule: O=[N+]([O-])c1ccc(S(=O)(=O)Cc2ccccc2)c([N+](=O)[O-])c1
value.type: Potency
reading: 3160 nM (active)
--
molecule: CN1[C@@H]2CC[C@H]1CC(O[C@@H](c1ccccc1)c1ccccc1N)C2 (stereo not given in full)
value.type: Potency
reading: inactive
--
molecule: O=CN1C[C@H]2C[C@@H](C1)c1cccc(=O)n1C2
value.type: Potency
reading: inactive
--
molecule: O=C(CCCN1CCC2(CC1)C(=O)N(CCc1ccc(N=C=S)cc1)CN2c1ccccc1)c1ccc(F)cc1
value.type: Potency
reading: inactive
